Values from PubChem BioAssay

# Assay Method Text: galactose survival enhancers in mitochondrial complex I cybrids – cell-based, galactose medium, ATP luminescence, primary screen (AID 1645843);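 note: positive z means more ATP and so rescue of galactose-driven cybrid death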
# Run Parameters: complex I mutant cybrid cells, 72 h
The source made the active and inactive calls.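 Rule for the calls: active = z-score of at least 1.8 in each of two replicates, scored against plate mean and spread of sample wells; inactive = the rest.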
Permitted responses: true (1) = active, false (0) = inactive

CN(Cc1ccco1)C(=O)c1nn(C)c2c1CC(N1CCOc3ccc(Cl)cc3C1)CC2 (configuration not stated): false (0)

Then there is this compound:
**Query** For Cc1c(CN2CCc3c(c(C(=O)NC4CCCC4)nn3CC(C)C)C2)c(=O)n(-c2ccccc2)n1C , which call appears in the assay record?
**Result** false (0)

###

# Assay Method Text: growth inhibition, MDA-MB-436, cell-based, BGB or cisplatin combos, synergistic combos for chromothripsis tumors (AID 1671458);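 note: cells exposed for 96 hours; 0% = vehicle DMSO and 100% = killing by high DMSO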
# Run Parameters: MDA-MB-436 breast carcinoma growth inhibition, drug combinations; at 0.5 µM; stronger effect = higher value
Give Satisfied when the value for inhibition is at least -10%. Give Not satisfied when it is less.

Answered examples (2):
Nc1ccccc1NC(=O)c1cnccn1: Satisfied
COc1nc(N)nc2c1ncn2[C@@H]1O[C@H](CO)[C@@H](O)[C@H]1O: Satisfied

**Query** Check if inhibition >= -10% (inclusive). Item: O=c1ccn(C2CC(O)C(CO)O2)c(=O)[nH]1 (stereo unspecified)
**Result** Not satisfied

**Query** Record: O=C1C(=Cc2cccnc2)C(=O)c2ccccc21
**Result** Not satisfied

**Query** Also check N#Cc1ccc(OC2CCC(NC(=O)CCSc3nc4ccccc4c(=O)[nH]3)CC2)cc1 (stereo unspecified)
**Result** Satisfied

**Query** Lookup NC(=O)c1ncn(C2OC(CO)C(O)C2O)c1O (stereo unspecified)
**Result** Not satisfied

###

# Assay Method Text: growth inhibition, single agents and combos, LFS_MB_2R, cell-based, cisplatin combos, synergistic combos for chromothripsis tumors (AID 1671457);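 note: cells exposed to compound for four days before readout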
# Run Parameters: LFS_MB_2R medulloblastoma cells, measured here: combination with cisplatin, at 0.5 µM, stronger effect = higher value
We begin with a simple list: items and their reported inhibition.
Provide only the numeric value, understood in %.

CC(C)(C#N)c1ccc(N2C(=O)OCc3cnc4ccc(-c5cnc6ccccc6c5)cc4c32)cc1: -16.8
CCC(C)C(=O)OC1CC(C)C=C2C=CC(C)C(CCC3CC(O)CC(=O)O3)C21 (stereo not drawn): -23.3
NC(=O)c1ncn(C2OC(CO)C(O)C2O)c1O (stereo not drawn): -10.4

Then there is this compound:
**Query** Query: inhibition; subject: CCC(Sc1nnc2c3ccccc3n(CC)c2n1)C(=O)Nc1ccccc1OC (stereo not drawn)
**Result** -34.2

###

# Assay Method Text: drug combination growth inhibition, ovarian cancer – cell-based, oncology-focused library, rucaparib conditional, profiling panel (AID 1508598)
# Run Parameters: patient-derived ovarian cancer cells, CellTiter-Glo viability, 144 h; at 5 µM; OCI-P5x cells; with rucaparib 20 µM; stronger effect = lower value; 100% = cells with rucaparib alone
Calls of active or inactive are those of the source.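 Rule for the calls: active = normalized viability below 100% at a tested concentration; inactive = the rest.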
Known viability of a selection of molecules

Before answering, review these 2 worked examples.
CC1(C)O[C@@H]2C[C@H]3[C@@H]4CCC5=CC(=O)C=C[C@]5(C)[C@]4(F)[C@H](O)C[C@]3(C)[C@@]2(C(=O)CO)O1: 78.5% (active)
COc1ccc(C2=N[C@@H](c3ccc(Cl)cc3)[C@H](c3ccc(Cl)cc3)N2C(=O)N2CCNC(=O)C2)c(OC(C)C)c1: 89.7% (active)

**Query** Entry under review: CC(C)(C)C(=O)Nc1ccc2c(c1)C(=O)C(=O)c1ccccc1-2 . Reported viability?
**Result** 2.26% (active)
